B1: glmS ribozyme (parent)
chain: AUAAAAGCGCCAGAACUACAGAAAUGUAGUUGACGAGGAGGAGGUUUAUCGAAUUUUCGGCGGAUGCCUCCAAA

variants of: B1; assay: self-cleavage kobs at 2500 uM GlcN6P; higher = faster cleavage; RNA array; conditions: with glucosamine-6-phosphate
This sample holds only a part of the variants without activity.
Measured Endpoint: self-cleavage kobs at 2500 uM GlcN6P (s⁻¹)
Give bare numbers, in s⁻¹.

As a guide, the following entries are already answered.
>>> measured_value("U54C U69A")
0.000123
>>> measured_value("G40U G66A C70U")
0.0016
>>> measured_value("A14U U65A")
0.000449
>>> measured_value("A6U A64G")
0.000128

Okay, now this variant:
Data request, read-out self-cleavage kobs at 2500 uM GlcN6P, for G41A C71A
0.000308

These measurements were taken from the supplement of paper PMC7125110.
